- Tested on: Plasmodium berghei
- Assay Notes: Screen against P. berghei liver stage (PbLuc), transformed with Luciferase, at 10uM
- Type: functional, HepG2
- Condition Parameters: tested at 10 uM
Screen size: about 69,000 compounds; about 8,600 (12%) showed an effect of 50% or more. The sample holds strong results, similar compounds and a random draw of the others, so the mix is not that of the screen.
Measured Property: INHIBITION (%)
# value in %; strip the unit string

| Compound | INHIBITION (%) |
| --- | --- |
| Cn1cc(CCN2CCOC(CNc3cccnn3)C2)cn1 (configuration not stated) | -33.7 |
| CCCc1noc(CCC(=O)N2CCCCC2Cn2cc(C)cn2)n1 (configuration not stated) | 28.3 |
| NC(=O)CCn1cc(CNCc2csc(N)n2)c2ccccc21 | 60.9 |
| CC(C)n1cnnc1CCNCc1cn(CCC(N)=O)c2ccccc12 | 6.94 |

Recorded INHIBITION (compound NC(=O)Cn1ccc(O)c(Cc2ccc(Cl)cc2Cl)c1=O ): 71.9

Measured INHIBITION of COc1cc(N2CCC3(CCCN(C(=O)c4cccnc4)C3)C2)ncn1 (configuration not stated) : 19.8

The reported INHIBITION of the compound Cc1cc(C)nc(N2CC=C[C@@H]2C(=O)NCc2ccc3c(c2)OCO3)n1 was 4.41

// Cc1ccc(C(C)NCc2cn(CCC(N)=O)c3ccccc23)cc1C (configuration not stated) : INHIBITION value = 27.7

// INHIBITION value for O=C(NCc1ccc(Cl)cc1Cl)NCC1(O)CCSC1 (configuration not stated) : 31.2

// sample CCOCCN1CCN(Cc2csc(-c3cnn(C)c3)n2)CC1 , its INHIBITION was -22.1

# INHIBITION of Cc1ccc(-c2nc(CN3CC(n4nc(C)cc4C)C3)no2)cc1 = 1.86

Short answer for CCOC(=O)Cn1ccc(O)c(Cc2ccc(Cl)cc2Cl)c1=O : INHIBITION was 1.95
